- Study Target: Bcl-xL/Bim (Homo sapiens)
- Sequence (Q07817 whole entry): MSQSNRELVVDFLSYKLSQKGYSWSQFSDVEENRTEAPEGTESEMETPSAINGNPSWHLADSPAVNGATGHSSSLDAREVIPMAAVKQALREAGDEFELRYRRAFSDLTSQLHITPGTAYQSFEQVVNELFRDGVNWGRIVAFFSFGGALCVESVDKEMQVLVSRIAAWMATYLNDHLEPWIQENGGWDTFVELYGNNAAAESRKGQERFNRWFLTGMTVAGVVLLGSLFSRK
- Protocol Description: Bcl-xL/Bim ELISA (GST-Bcl-xL binding to biotinylated Bim BH3 peptide)
- Experimental Context: Table 3-A structure I; Bcl-xL at 10 nM; n ≥ 3; read-out: Bcl-xL-Bim IC50 (average ± SEM)
pIC50: −log10 of the molar value.
Assay Endpoint: pIC50

Worked examples, 4 compounds total:
O=C(c1ccc(O)cc1O)c1[nH]c(Cl)c(Cl)c1-n1c(C(=O)c2ccc(O)cc2O)cc(Cl)c1Cl [Compound 1-7]: < 4.30
COC(=O)c1ccc(C(=O)c2[nH]c(Cl)c(Cl)c2-n2c(C(=O)c3ccc(C(=O)OC)cc3O)cc(Cl)c2Cl)c(O)c1 [Compound I-17]: < 4.00
CCOP(=O)(OCC)c1ccc(C(=O)c2[nH]c(Cl)c(Cl)c2-n2c(C(=O)c3ccc(P(=O)(OCC)OCC)cc3O)cc(Cl)c2Cl)c(O)c1 [Compound I-19]: < 4.00
O=C(c1cc(Cl)c(O)cc1O)c1[nH]c(Cl)c(Cl)c1-n1c(C(=O)c2cc(Cl)c(O)cc2O)cc(Cl)c1Cl [Compound 1-8]: < 4.30

For the compound O=C(O)CSc1ccc(C(=O)c2[nH]c(Cl)c(Cl)c2-n2c(C(=O)c3ccc(SCC(=O)O)cc3O)cc(Cl)c2Cl)c(O)c1 [Compound 1-15] , what pIC50 is on record?
< 4.00

How about this compound: O=C(O)c1ccc(C(=O)c2[nH]c(Cl)c(Cl)c2-n2c(C(=O)c3ccc(C(=O)O)cc3O)cc(Cl)c2Cl)c(O)c1 [Compound I-18]
< 4.00

Where do these numbers come from? They come from patent US10358454B2.
